# assay.remarks: Intrinsic clearance in mouse hepatocytes assessed per million cells
# Format: ADME, cell-based, Hepatocyte
# test.settings: read-out: CLH
hepatocyte CLint listing for selected compounds.
Number plus unit, in that order.

> print(dat)
                               query.smiles         result.value
1  COCc1ccc(-c2cc3c(N[C@@H](C)c4ccn(C)n4)c(C(N)=O)cnc3cc2F)cn1  28 µL/min/1e6 cells

Continue with the next compound.
Inquiry: Could you please provide reported hepatocyte CLint for `COCc1ccc(-c2ccc3ncc(C(N)=O)c(N[C@@H](C)C4CCOCC4)c3c2)cn1` ? Thanks!
Reply text: 18 µL/min/1e6 cells

* * *

# assayed.system: Serine/threonine-protein kinase mTOR (Homo sapiens, UniProt P42345)
# assay.remarks: Inhibition of C-terminal FLAG-tagged recombinant mTOR (1362 to 2549 residues) (unknown origin) using Biotin-Ahx-Lys-Lys-Ala-Asn-Gln-Val-Phe-Leu-Gly-Phe-Thr-Tyr-Val-Ala-Pro-Ser-Val-Leu-Glu-Ser-Val-Lys-Glu-NH2 as substrate after 90 mins by AlphaScreen assay
value.type: pIC50
To interpret pIC50, take it as minus log10 of a concentration measured in moles per litre.

Inquiry: Report pIC50, nothing else, for this compound: `CCC(CC)CNc1c(C(N)=O)cnc2ccc(C#N)cc12`
Reply text: 5.46

* * *

# assay.remarks: physchem
# test.settings: octanol/buffer, pH 7.4
logD vs 3: at or above is 1, below is 0.

For orientation, consider the following solved cases.
> print(dat)
                               query.smiles  class.label
1  CCC(CC)CNc1c(C(N)=O)cnc2ccc(-c3ccc(CO)nc3)cc12            1
2  CCC(CC)CNc1c(C(N)=O)cnc2ccc(-c3cncnc3)cc12            1
3  CCC(CC)CNc1c(C(N)=O)cnc2ccc(-c3ccc(COC)nc3)cc12            1
4  CCC(CC)CNc1c(C(N)=O)cnc2ccc(-c3ccnnc3)cc12            1

Inquiry: API: above_or_equal(metric=logD, cutoff=3) for item `NC(=O)c1cnc2ccc(-c3cccnc3)cc2c1NCC1CCOCC1`
Reply text: 0

Inquiry: Is logD for `NC(=O)c1cnc2ccc(-c3cccnc3)cc2c1NC1CCCC1` at or above 3?
Reply text: 1

Inquiry: Could you please find out whether `CCC(CC)CNc1c(C(N)=O)cnc2ccc(-c3ccc(C)nc3)cc12` has logD that meets 3 or exceeds it?
Reply text: 1

Inquiry: Kindly determine if logD recorded for `CCC(CC)CNc1c(C(N)=O)c(C)nc2ccc(-c3cccnc3)cc12` is above or exactly 3.
Reply text: 0

* * *

# assayed.system: Serine-protein kinase ATM (Homo sapiens, UniProt Q13315)
# Sequence (Q13315 whole entry): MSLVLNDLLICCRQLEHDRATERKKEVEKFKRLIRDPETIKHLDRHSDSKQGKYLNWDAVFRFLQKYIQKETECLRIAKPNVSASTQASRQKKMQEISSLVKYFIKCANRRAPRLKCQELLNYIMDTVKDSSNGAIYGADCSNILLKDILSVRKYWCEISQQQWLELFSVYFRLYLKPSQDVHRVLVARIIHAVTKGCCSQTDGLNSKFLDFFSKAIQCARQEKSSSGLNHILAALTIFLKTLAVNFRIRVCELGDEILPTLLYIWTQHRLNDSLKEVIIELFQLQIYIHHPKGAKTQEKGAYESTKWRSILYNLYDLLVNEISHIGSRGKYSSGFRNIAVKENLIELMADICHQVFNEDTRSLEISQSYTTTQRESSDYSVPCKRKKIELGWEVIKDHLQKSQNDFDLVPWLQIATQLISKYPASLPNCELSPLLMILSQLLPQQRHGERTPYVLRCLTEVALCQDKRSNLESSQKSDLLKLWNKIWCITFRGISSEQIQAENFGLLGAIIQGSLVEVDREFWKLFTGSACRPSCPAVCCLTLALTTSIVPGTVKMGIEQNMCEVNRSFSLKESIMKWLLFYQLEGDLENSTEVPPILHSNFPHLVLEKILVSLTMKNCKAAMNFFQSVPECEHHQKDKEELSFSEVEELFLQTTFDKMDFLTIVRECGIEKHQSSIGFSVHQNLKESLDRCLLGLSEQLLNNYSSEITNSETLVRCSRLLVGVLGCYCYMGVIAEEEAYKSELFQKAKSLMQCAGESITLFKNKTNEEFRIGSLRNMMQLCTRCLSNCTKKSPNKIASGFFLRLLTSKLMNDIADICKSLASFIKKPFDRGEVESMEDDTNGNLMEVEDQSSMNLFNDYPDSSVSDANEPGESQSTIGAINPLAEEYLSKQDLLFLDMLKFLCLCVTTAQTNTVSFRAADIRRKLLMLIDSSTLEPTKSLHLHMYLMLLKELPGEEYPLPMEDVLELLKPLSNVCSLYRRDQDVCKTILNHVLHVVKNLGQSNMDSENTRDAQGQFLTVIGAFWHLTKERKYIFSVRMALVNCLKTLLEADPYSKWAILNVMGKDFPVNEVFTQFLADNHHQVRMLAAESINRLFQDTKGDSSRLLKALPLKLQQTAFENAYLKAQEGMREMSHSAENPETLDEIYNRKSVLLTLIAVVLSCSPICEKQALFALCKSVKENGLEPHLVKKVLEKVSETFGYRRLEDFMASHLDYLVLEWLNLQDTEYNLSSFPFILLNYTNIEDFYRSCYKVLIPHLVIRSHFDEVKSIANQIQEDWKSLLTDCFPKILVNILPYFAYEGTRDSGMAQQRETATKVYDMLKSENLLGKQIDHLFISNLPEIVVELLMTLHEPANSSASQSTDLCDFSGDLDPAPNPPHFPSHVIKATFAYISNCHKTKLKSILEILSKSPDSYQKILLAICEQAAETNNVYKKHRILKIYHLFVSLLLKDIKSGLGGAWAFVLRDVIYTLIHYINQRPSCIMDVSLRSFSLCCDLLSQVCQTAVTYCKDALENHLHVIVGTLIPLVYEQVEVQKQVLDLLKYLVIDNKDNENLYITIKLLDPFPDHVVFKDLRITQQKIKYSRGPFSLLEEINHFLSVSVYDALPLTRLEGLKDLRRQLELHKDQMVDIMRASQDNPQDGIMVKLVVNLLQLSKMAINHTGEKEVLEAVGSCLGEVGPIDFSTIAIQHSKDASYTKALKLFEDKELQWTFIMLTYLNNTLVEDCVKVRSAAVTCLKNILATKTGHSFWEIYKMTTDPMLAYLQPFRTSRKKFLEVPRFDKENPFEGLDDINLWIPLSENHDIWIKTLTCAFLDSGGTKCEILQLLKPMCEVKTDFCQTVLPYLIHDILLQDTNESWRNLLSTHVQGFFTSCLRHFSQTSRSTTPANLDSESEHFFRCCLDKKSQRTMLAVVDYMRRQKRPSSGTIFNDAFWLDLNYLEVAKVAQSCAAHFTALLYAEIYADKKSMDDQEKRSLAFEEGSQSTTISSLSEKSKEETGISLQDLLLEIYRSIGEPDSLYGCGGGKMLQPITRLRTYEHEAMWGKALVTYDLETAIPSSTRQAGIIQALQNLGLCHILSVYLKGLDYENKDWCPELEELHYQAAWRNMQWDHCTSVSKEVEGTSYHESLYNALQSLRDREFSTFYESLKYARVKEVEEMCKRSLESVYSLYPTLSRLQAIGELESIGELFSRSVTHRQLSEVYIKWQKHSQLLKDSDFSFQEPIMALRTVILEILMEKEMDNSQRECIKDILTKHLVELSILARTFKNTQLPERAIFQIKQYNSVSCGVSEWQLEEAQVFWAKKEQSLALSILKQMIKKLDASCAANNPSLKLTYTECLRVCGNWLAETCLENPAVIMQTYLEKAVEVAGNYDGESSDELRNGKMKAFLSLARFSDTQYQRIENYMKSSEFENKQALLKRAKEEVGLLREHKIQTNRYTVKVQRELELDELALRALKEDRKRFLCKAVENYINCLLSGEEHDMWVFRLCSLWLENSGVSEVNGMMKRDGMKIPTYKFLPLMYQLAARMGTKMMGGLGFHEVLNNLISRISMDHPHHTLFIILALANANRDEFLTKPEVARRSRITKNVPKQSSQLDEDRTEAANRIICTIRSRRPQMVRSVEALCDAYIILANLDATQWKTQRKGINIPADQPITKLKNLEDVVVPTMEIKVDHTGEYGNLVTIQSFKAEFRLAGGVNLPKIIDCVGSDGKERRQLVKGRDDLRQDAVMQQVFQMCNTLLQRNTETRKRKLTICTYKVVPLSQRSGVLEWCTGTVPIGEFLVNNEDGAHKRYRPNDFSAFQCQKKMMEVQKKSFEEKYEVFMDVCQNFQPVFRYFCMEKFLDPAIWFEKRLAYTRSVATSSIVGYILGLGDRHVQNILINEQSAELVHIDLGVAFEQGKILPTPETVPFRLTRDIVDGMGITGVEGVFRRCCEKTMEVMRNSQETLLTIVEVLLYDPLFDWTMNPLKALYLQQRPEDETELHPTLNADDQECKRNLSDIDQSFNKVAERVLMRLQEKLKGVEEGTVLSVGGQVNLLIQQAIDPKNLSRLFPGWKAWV
# assay.remarks: Inhibition of ATM phosphorylation at Ser-1981 residue in human HT-29 cells incubated for 1 hr followed by X-ray irradiation by Hoechst staining based fluorescence plate reader analysis
# Type: cell-based
value.type: IC50 (nM)
Field: numeric (nM). Do not append units.

Would you please look over these solved cases?
> print(dat)
                                query.smiles  result.value
 1  C[C@@H](Nc1c(C(N)=O)cnc2ccc(-c3cccnc3)cc12)C1CCOCC1           730
 2  C[C@H](Nc1c(C(N)=O)cnc2ccc(-c3cccnc3)cc12)c1ccn(C)n1           124
 3   NC(=O)c1cnc2ccc(-c3cccnc3)cc2c1NC1CCCC1           137
 4  NC(=O)c1cnc2cc(F)c(-c3cccnc3)cc2c1NC1CCOCC1           606
 5  C[C@@H](Nc1c(C(N)=O)cnc2ccc(C#N)cc12)c1ccc(Cl)cc1         14400
 6  NC(=O)c1cnc2ccc(-c3cccnc3)cc2c1NCC1CCOCC1          3230
 7  CCC(CC)CNc1c(C(N)=O)cnc2ccc(-c3ccc(COC)nc3)cc12            45
 8  NC(=O)c1cnc2ccc(-c3cccnc3)cc2c1NC1CCCCC1           132
 9      CCC(CC)CNc1c(C(N)=O)cnc2ccc(C#N)cc12           820
10  NC(=O)c1cnc2ccc(-c3cccnc3)cc2c1NCC1CCCCC1           456

Inquiry: Lab note: Serine-protein kinase ATM (Homo sapiens, UniProt Q13315) assay, enter IC50 for `C[C@H](Nc1c(C(N)=O)cnc2ccc(-c3cccnc3)cc12)C1CCOCC1` here
Reply text: 168

Inquiry: # return IC50 for `CCC(CC)CNc1c(C(N)=O)cnc2ccc(-c3cncnc3)cc12` , test system: Serine-protein kinase ATM (Homo sapiens, UniProt Q13315)
Reply text: 1840

Inquiry: Give reported IC50 for `CCC(CC)CNc1c(C(N)=O)cnc2ccc(-c3ccc(C)nc3)cc12` (Serine-protein kinase ATM (Homo sapiens, UniProt Q13315))
Reply text: 50

Inquiry: Jot down IC50 (Serine-protein kinase ATM (Homo sapiens, UniProt Q13315)) of `CCC(CC)CNc1c(C(N)=O)cnc2ccc(-c3ccncc3)cc12` .
Reply text: 418

Inquiry: Enter IC50 (test system Serine-protein kinase ATM (Homo sapiens, UniProt Q13315)) for `CCC(CC)CNc1c(C(N)=O)cnc2ccc(-c3cccnn3)cc12`
Reply text: 571

Inquiry: // output IC50; input `CCC(CC)CNc1c(C(N)=O)cnc2c(C)cc(-c3cccnc3)cc12` ; system Serine-protein kinase ATM (Homo sapiens, UniProt Q13315)
Reply text: 6000

Inquiry: Specify the recorded IC50 for `NC(=O)c1cnc2ccc(-c3cccnc3)cc2c1SC1CCCC1` , system: Serine-protein kinase ATM (Homo sapiens, UniProt Q13315).
Reply text: 9700

Inquiry: Please respond with reported IC50 (system Serine-protein kinase ATM (Homo sapiens, UniProt Q13315)) for `COCc1ccc(-c2ccc3ncc(C(N)=O)c(N[C@@H](C)c4ccn(C)n4)c3c2)c(F)n1` .
Reply text: 63

Inquiry: Give reported IC50 for `COCc1ccc(-c2cc3c(N[C@@H](C)c4nn(C)cc4F)c(C(N)=O)cnc3cc2F)cn1` (Serine-protein kinase ATM (Homo sapiens, UniProt Q13315))
Reply text: 19

Inquiry: Determine reported IC50 for `CCC(CC)CNc1c(C(N)=O)cnc2ccc(-c3ccc(CO)nc3)cc12` ; test system: Serine-protein kinase ATM (Homo sapiens, UniProt Q13315).
Reply text: 87
